Reference for the values: a melting point compilation (Tetko et al.; mined from patent text by program, amines drawn as free bases though some values may be those of a salt)

property label: melting point

Consider the following illustrative entries.
molecule	melting point
COc1ccc(-c2c(=O)[nH]c3cc(Cl)c(Cl)cc3[n+]2[O-])cc1	262 to 264 °C
O=c1[nH]c2cc(Cl)ccc2c(O)c1-c1cccc(I)c1	> 350 °C
CCCCOC(=O)NCCc1ccc(OCC(O)CNC(C)C)nc1 (stereo not given)	93 to 95 °C
CC(=O)OC1CSC(Oc2cc(-c3ccnc(F)c3)cnc2F)C(OC(C)=O)C1OC(C)=O (stereo not given)	142 to 144 °C
OCCC1CCc2cc(OCc3ccc(-c4ccccc4)cc3)ccc2C1 (stereo not given)	101 to 102 °C

Input: Given O=C(O)c1cccc(C23CC4CC(CC(C4)C2)C3)c1 , respond with its melting point.
Output: 247 to 249 °C

Input: Given CNc1cc(-c2c(-c3ccc(F)cc3)ccn2C2CCNCC2)ccn1 , respond with its melting point.
Output: 165 to 167 °C

Input: Given OCc1ccc2c(c1)ncn2-c1cccc(-c2ccccc2)c1 , respond with its melting point.
Output: 130 to 131 °C

Input: Given O=C(Nc1cc(F)ccc1N1CCCCC1)c1ccncc1 , respond with its melting point.
Output: 115 to 116 °C

Input: Given CCOC(=O)Cc1nc2cc(C)ccc2o1 , respond with its melting point.
Output: 68 to 69 °C

Input: Given CC(=O)NC[C@H]1CN(c2ccc(N3CC(=O)C3)c(F)c2)C(=O)O1 , respond with its melting point.
Output: 192 to 193 °C

Input: Given c1ccc(N2c3ccccc3C3CN(CC45CC6CC(CC(C6)C4)C5)CCC32)cc1 (single isomer, unassigned; (+)) , respond with its melting point.
Output: 117 to 119 °C

Input: Given COc1ccc2c(c1)C(=O)CC1(CCN(c3cc(=O)n(C)c(=O)n3C)CC1)O2 , respond with its melting point.
Output: 202 to 203 °C

Input: Given COC(=O)Cn1cnc(N2CCc3ccccc3CC2)c(C#N)c1=O , respond with its melting point.
Output: 156 to 160 °C

Input: Given CC(C)(C)C(=O)Nc1ccc(F)cc1 , respond with its melting point.
Output: 124 to 125 °C
